These data points were gathered from patent US20250289893A1.

# Assayed target: T1, human CD1a expressed on cells (human, UniProt P06126 17-327; P61769 21-119)
# T1 construct: also called HEK - CD1a; C1R - CD1a
# Assay procedure: flow cytometry, HEK-293 cells, 0.316 µg/ml antibody
Recorded metric: Fluorescence Intensity Geomean (normalized to background)

Binder	Reported value
77A (VR11851) (antibody, V domains shown, also called OX77a; antibody 77a) VH: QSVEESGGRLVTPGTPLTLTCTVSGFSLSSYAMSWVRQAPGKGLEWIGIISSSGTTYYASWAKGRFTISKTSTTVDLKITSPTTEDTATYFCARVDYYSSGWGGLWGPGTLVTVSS VL: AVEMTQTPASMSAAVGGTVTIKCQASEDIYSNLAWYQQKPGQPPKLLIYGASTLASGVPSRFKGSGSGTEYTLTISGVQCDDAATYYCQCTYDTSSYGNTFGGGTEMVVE	58.6 fold over background
111 (VR12113) (antibody, V domains shown, also called OX111) VH: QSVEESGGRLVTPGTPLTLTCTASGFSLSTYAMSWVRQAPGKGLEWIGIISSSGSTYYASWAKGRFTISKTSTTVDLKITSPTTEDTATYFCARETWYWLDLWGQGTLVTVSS VL: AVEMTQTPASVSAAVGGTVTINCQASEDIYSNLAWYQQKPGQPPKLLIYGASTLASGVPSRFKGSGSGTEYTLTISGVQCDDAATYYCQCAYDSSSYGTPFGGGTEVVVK	30.8 fold over background
116 (VR12117) (antibody, V domains shown, also called OX116) VH: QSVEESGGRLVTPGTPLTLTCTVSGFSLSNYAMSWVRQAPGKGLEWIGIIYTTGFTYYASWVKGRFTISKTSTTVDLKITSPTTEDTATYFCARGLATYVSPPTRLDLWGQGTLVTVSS VL: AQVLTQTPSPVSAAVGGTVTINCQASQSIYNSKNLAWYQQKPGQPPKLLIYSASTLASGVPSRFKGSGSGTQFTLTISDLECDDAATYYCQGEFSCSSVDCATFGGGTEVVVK	36.5 fold over background
110 (VR12112) (antibody, V domains shown, also called OX110; antibody 110) VH: QSVEESGGRLVTPGTPLTLTCTVSGFSLSSYAMIWVRQAPGKGLEWIGIINSSDNTHYATWAKGRFTISKTSTTVDLKITSPTTEDTATYFCARDPYDYGYGWYFDLWGPGTLVTVSS VL: AQVLTQTPSPVSAAVGGTVTINCQASQSVFNNKNLAWYQQKPGQPPKLLIYKASTLASGVSSRFKGSGSGTQFALTISGVQCDDAATYYCQGEFSCSSTDCVTFGGGTEVVVK	38.3 fold over background
